Measured growth inhibition of individual entries
run.description: NCI Yeast Anticancer Drug Screen. Data for the rad50 strain (AID 155);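 also: 0% = growth of vehicle-only cultures of the same strain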
condition.summary: S. cerevisiae rad50 strain growth inhibition; at 50.0 µM; active compounds read high
The panel holds about 79,000 compounds, 15% with a hit somewhere; the sample as a whole holds those more often.
Response body: numeric value in %, unit text excluded.

These solved cases illustrate the format of a correct answer.
>>> measured_number("CCCC(=O)NS(=O)(=O)c1ccc(C)cc1")
2.85
>>> measured_number("COc1ccc2c(c1OC)C(=O)C2")
-21.1
>>> measured_number("COC(=O)/C=C1\\CCC(C)O1 (configuration not stated)")
-1.35

Need growth inhibition, item OC1CC/C=C\CC/C=C/CCC1O (configuration not stated)
-5.75

Queued: Oc1cccc(NCNC2Nc3ccccc3N2)c1
6.5

Queued: Cc1cccc(NC(=O)Nc2cccc(C)c2)c1
-3.75
